I'd appreciate it if you could supply MIC values for the items below.
- Tested on: C. albicans
- test: minimum inhibitory concentration (MIC) assay against C. albicans
- Assay type: cell-based, Candida albicans
- settings: growth inhibition of C. albicans; assay performed by Charles River Laboratories

These solved cases illustrate the format of a correct answer.
* CCCCCc1cc2c(c(O)c1C(=O)O)-c1cc(C)ccc1C(C)(C)O2 | >200 µg/mL
* CCCc1cc(O)c(C/C=C(\C)CCC=C(C)C)c(O)c1 | 50 µg/mL
* C=C(C)[C@@H]1CCC(C)=C[C@H]1c1c(O)cc(CCCCC)cc1O | 200 µg/mL

Could I get MIC for every one of these entries?
1. CCCCc1cc(O)c(C/C=C(\C)CCC=C(C)C)c(O)c1C(=O)O
2. CCCCCc1cc(O)c(C/C=C(\C)CCC=C(C)C)c(O)c1
3. CCCCCc1cc2c(c(O)c1C(=O)O)C=CC(C)(CCC=C(C)C)O2 (centres unmarked)
4. CCCCc1cc(O)c(CC=C(C)CCC=C(C)C)c(O)c1

[">200 µg/mL", ">200 µg/mL", ">200 µg/mL", "200 µg/mL"]

The compound `C=C(C)[C@@H]1CCC(C)=C[C@H]1c1c(O)cc(CCCCC)c(C(=O)O)c1O` , when measured on C. albicans, yielded MIC of >200 µg/mL

Recorded values, source patent US20230082130A1.
